Test system: HepG2
Test: Cytotoxicity against human HepG2 cells assessed as compound concentration causing changes in membrane permeability by Cell Health assay
Type: cell-based
Rule: Activity below 50 µM gives YES. Equal to or above 50 µM gives NO.

{"columns": ["Compound", "Qualitative Label"],
 "data": [
  ["Cc1c(CN2CCOCC2)cc(-c2ccc(C(C)C)cc2)n1C(C)C", "YES"],
  ["Cc1cc(Cl)ccc1-c1cc(CN2CCOCC2)c(C)n1-c1ccc(F)cc1", "NO"],
  ["Cc1c(CN2CCOCC2)cc(-c2ccc(Cl)cn2)n1-c1ccc(F)cc1", "NO"],
  ["Cc1c(CN2CCOCC2)cc(-c2ccc(C(C)C)cc2)n1CC(C)(C)O", "NO"],
  ["Cc1c(CN2CCOCC2)cc(-c2ccc(C(C)C)cc2)n1C1COC1", "NO"],
  ["Cc1c(CN2CCOCC2)cc(-c2ccc(C(C)C)cc2)n1C1CCC1", "YES"],
  ["Cc1c(CN2CCOCC2)cc(-c2ccc(C(C)C)cc2)n1C1CCCCC1", "NO"],
  ["COCCCn1c(-c2ccc(C(C)C)cc2)cc(CN2CCOCC2)c1C", "YES"],
  ["Cc1c(CN2CCOCC2)cc(-c2ccc(C(C)C)cc2)n1C1CCCOC1 (centres undefined)", "NO"],
  ["Cc1c(CN2CCOCC2)cc(-c2ccc(C(C)C)cc2)n1-c1ccc(F)cn1", "NO"],
  ["Cc1c(CN2CCOCC2)cc(-c2ccc(C(C)C)cc2)n1C1CC1", "YES"],
  ["Cc1c(CN2CCOCC2)cc(-c2ccc(C(C)C)cc2)n1C", "YES"]
]}
